Biological target: human LPAR1 (Homo sapiens)
Construct: host or cells: TangoEDG2-bla U2OS cells
Sequence (Q92633 whole entry): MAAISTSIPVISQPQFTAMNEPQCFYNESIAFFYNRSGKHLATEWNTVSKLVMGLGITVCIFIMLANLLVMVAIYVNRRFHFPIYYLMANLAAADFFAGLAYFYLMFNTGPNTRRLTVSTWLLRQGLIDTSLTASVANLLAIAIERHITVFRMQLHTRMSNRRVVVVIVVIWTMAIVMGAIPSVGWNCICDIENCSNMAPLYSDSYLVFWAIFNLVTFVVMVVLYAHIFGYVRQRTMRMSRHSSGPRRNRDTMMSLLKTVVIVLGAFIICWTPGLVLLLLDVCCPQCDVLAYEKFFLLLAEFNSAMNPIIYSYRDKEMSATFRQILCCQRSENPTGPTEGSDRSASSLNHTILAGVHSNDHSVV
Experiment: Arrestin assay (Arrestin Reporter EDG2-bla U2OS), inhibition of LPA-stimulated signal
Assay type: cell-based
Details: TangoEDG2-bla U2OS cells expressing human LPAR1; 0.25 μM LPA; read-out: Arrestin Reporter EDG2-bla U2OS Human Merged IC50
observed property: pIC50
The meaning of pIC50 here: minus log10 of the concentration in molar units.

Consider COCC[C@@H](CN1CCC(C(=O)Nc2ccc(Cl)cc2OC(F)F)(n2ncc3c2C(C)(C)OC3)CC1)C(=O)O [Compound 210] . Its measured pIC50 is 6.91

get_value(item= CC(C)c1ccnn1C1(C(=O)Nc2ccc(Cl)cc2OC(F)F)CCN(C[C@H](COCC(F)(F)F)C(=O)O)CC1 [Compound 234] , readout=pIC50) returns 8.02

Just so you know, measured pIC50 for CC(C)c1ccnn1C1(C(=O)Nc2ccc(Cl)cc2OC(F)F)CCN(CC2(C(=O)O)CCN(C(=O)OC(C)(C)C)CC2)CC1 [Compound 4] came out at 7.64

Notebook: CC(C)c1ccnn1C1(C(=O)Nc2ccc(Cl)cc2OC(F)F)CCN(CC2(C(=O)O)CCN(C(=O)C3CCC3)CC2)CC1 [Compound 44] , pIC50 read as 7.52
